Readings of CC50 for the listed compounds
ASSAY_SUMMARY: Cytotoxicity against human MT4 cells assessed as reduction in cell viability by MTT assay
Type: toxicity, cell-based
QUANTITY_MEASURED: CC50

[
  {
    "COMPOUND": "Cc1c(C(N=[N+]=[N-])c2cccc3ccccc23)nc(SC(C)C)[nH]c1=O (centres undefined)",
    "RESULT": "> 342 µM"
  },
  {
    "COMPOUND": "COc1cc(OC)cc(C(N=[N+]=[N-])c2nc(SC(C)C)[nH]c(=O)c2C(C)C)c1 (centres undefined)",
    "RESULT": "97.6 µM"
  },
  {
    "COMPOUND": "CCc1c(C(N=[N+]=[N-])c2ccc(F)cc2)nc(SC(C)C)[nH]c1=O (centres undefined)",
    "RESULT": "> 360 µM"
  },
  {
    "COMPOUND": "Cc1c(C(N=[N+]=[N-])c2ccc(-c3ccccc3)cc2)nc(SC(C)C)[nH]c1=O (centres undefined)",
    "RESULT": "> 319 µM"
  },
  {
    "COMPOUND": "Cc1cc(C)cc(C(N=[N+]=[N-])c2nc(SC(C)C)[nH]c(=O)c2C)c1 (centres undefined)",
    "RESULT": "> 364 µM"
  },
  {
    "COMPOUND": "CCc1c(C(N=[N+]=[N-])c2ccc(-c3ccccc3)cc2)nc(SC(C)C)[nH]c1=O (centres undefined)",
    "RESULT": "> 308 µM"
  },
  {
    "COMPOUND": "CCc1c(C(N=[N+]=[N-])c2ccc3ccccc3c2)nc(SC(C)C)[nH]c1=O (centres undefined)",
    "RESULT": "3.98 µM"
  },
  {
    "COMPOUND": "CC(C)Sc1nc(C(N=[N+]=[N-])c2ccc(F)cc2)c(C(C)C)c(=O)[nH]1 (centres undefined)",
    "RESULT": "> 346 µM"
  },
  {
    "COMPOUND": "Cc1c(C(N=[N+]=[N-])c2ccc3ccccc3c2)nc(SC(C)C)[nH]c1=O (centres undefined)",
    "RESULT": "4.89 µM"
  }
]

---

TEST_TARGET: Cytochrome P450 2D6 (Homo sapiens)
Sequence (P10635 whole entry): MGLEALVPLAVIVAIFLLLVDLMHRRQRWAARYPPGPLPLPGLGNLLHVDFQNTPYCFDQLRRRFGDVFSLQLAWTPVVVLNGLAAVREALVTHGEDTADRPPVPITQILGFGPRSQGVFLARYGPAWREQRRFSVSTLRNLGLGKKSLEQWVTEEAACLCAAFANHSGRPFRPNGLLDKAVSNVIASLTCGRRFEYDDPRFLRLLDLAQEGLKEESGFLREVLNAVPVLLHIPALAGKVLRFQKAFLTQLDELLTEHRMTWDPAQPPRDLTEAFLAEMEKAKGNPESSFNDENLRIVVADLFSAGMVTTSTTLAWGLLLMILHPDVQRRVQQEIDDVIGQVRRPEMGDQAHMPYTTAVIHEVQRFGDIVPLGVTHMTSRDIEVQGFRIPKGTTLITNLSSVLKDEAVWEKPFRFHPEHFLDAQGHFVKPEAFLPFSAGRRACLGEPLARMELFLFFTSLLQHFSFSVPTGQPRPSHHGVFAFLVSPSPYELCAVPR
QUANTITY_MEASURED: IC50

[
  {
    "COMPOUND": "Cc1cc(C)cc(C(N=[N+]=[N-])c2nc(SC(C)C)[nH]c(=O)c2C)c1 (stereo unspecified)",
    "QUANTITY_MEASURED": "IC50",
    "RESULT": "> 50 µM"
  }
]

---

TEST_TARGET: UniProtKB Q72547
pIC50: −log10 of the molar value.
QUANTITY_MEASURED: pIC50

[
  {
    "COMPOUND": "Cc1cc(C)cc(C(N=[N+]=[N-])c2nc(SC(C)C)[nH]c(=O)c2C)c1 (stereo not drawn)",
    "QUANTITY_MEASURED": "pIC50",
    "RECORDED_NUMBER": 7.10
  },
  {
    "COMPOUND": "CCc1c(C(N=[N+]=[N-])c2cc(C)cc(C)c2)nc(SC(C)C)[nH]c1=O (stereo not drawn)",
    "QUANTITY_MEASURED": "pIC50",
    "RECORDED_NUMBER": 7.00
  },
  {
    "COMPOUND": "CCc1c(C(N=[N+]=[N-])c2ccc(C)cc2)nc(SC(C)C)[nH]c1=O (stereo not drawn)",
    "QUANTITY_MEASURED": "pIC50",
    "RECORDED_NUMBER": 6.77
  }
]

---

TEST_TARGET: hERG (KCNH2) (Homo sapiens)
Sequence (Q12809 whole entry): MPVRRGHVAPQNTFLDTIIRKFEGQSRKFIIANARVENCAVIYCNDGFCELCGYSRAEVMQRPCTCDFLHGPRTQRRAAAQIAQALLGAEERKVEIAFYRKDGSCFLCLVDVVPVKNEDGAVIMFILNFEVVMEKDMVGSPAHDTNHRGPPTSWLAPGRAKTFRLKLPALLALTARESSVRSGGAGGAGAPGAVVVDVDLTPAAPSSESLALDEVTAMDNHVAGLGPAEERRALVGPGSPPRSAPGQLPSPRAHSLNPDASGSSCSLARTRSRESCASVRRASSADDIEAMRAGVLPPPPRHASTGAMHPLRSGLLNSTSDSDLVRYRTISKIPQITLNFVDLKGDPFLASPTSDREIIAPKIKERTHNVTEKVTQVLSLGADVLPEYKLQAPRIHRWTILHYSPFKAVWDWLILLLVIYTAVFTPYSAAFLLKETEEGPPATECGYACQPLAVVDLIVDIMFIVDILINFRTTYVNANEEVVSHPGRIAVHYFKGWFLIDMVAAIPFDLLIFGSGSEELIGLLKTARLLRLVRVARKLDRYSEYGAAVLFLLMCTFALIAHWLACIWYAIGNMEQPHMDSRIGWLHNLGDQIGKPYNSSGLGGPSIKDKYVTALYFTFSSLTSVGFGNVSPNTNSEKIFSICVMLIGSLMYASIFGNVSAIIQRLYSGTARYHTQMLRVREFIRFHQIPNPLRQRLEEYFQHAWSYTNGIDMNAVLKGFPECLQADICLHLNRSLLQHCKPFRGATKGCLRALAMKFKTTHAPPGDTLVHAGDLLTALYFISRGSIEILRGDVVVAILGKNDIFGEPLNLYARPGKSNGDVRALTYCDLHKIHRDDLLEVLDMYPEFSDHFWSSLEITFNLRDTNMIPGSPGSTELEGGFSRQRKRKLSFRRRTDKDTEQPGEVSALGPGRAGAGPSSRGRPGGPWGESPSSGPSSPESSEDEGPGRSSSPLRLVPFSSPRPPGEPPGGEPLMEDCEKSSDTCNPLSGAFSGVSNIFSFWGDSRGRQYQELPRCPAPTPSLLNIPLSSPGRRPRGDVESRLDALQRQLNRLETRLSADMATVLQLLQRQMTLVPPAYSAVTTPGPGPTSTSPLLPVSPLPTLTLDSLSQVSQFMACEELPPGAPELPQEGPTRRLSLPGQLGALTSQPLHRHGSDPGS
ASSAY_SUMMARY: Inhibition of human ERG expressed in CHO cells at 40 uM by automated patch-clamp electrophysiological assay
Type: toxicity, cell-based
CONDITION_DETAILS: CHO cells that express hERG

[
  {
    "COMPOUND": "Cc1cc(C)cc(C(N=[N+]=[N-])c2nc(SC(C)C)[nH]c(=O)c2C)c1 (stereo unspecified)",
    "inhibition at 40 µM [%]": 41.4
  }
]

---

Parameter: selectivity ratio. Scope: all listed entries.
ASSAY_SUMMARY: Selectivity index, ratio of CC50 for cytotoxicity against human MT4 cells assessed as reduction in cell viability by MTT assay to EC50 for anti-HIV activity against wild type HIV-1 IIIB infected in human MT4 cells assessed as inhibition of virus-induced cytopathic effect by MTT assay
Format: toxicity, cell-based
CONDITION_DETAILS: read-out: Ratio CC50/EC50
QUANTITY_MEASURED: selectivity ratio

[
  {
    "COMPOUND": "CC(C)Sc1nc(C(N=[N+]=[N-])c2ccc(-c3ccccc3)cc2)c(C(C)C)c(=O)[nH]1 (stereo unspecified)",
    "RESULT": "< 1"
  },
  {
    "COMPOUND": "CCc1c(C(N=[N+]=[N-])c2ccc(F)cc2)nc(SC(C)C)[nH]c1=O (stereo unspecified)",
    "RESULT": "> 956"
  },
  {
    "COMPOUND": "CCc1c(C(N=[N+]=[N-])c2ccc(Br)cc2)nc(SC(C)C)[nH]c1=O (stereo unspecified)",
    "RESULT": "> 1040"
  },
  {
    "COMPOUND": "Cc1c(C(N=[N+]=[N-])c2ccc(Cl)cc2)nc(SC(C)C)[nH]c1=O (stereo unspecified)",
    "RESULT": "> 1650"
  },
  {
    "COMPOUND": "CCc1c(C(N=[N+]=[N-])c2ccc(Cl)cc2)nc(SC(C)C)[nH]c1=O (stereo unspecified)",
    "RESULT": "> 1310"
  },
  {
    "COMPOUND": "Cc1ccc(C(N=[N+]=[N-])c2nc(SC(C)C)[nH]c(=O)c2C)cc1 (stereo unspecified)",
    "RESULT": 93
  }
]

---

ASSAY_SUMMARY: Cytotoxicity against human MT4 cells assessed as reduction in cell viability by MTT assay
Assay type: toxicity, cell-based
The entries below are paired with their reported CC50.

[
  {
    "COMPOUND": "Cc1c(C(N=[N+]=[N-])c2ccc(Cl)cc2)nc(SC(C)C)[nH]c1=O (centres undefined)",
    "CC50": "> 357 µM"
  },
  {
    "COMPOUND": "CCc1c(C(N=[N+]=[N-])c2ccc(OC(F)(F)F)cc2)nc(SC(C)C)[nH]c1=O (centres undefined)",
    "CC50": "> 302 µM"
  },
  {
    "COMPOUND": "Cc1c(C(N=[N+]=[N-])c2ccc(OC(F)(F)F)cc2)nc(SC(C)C)[nH]c1=O (centres undefined)",
    "CC50": "> 313 µM"
  },
  {
    "COMPOUND": "Cc1cn([C@H]2C[C@H](N=[N+]=[N-])[C@@H](CO)O2)c(=O)[nH]c1=O",
    "CC50": "> 7.06 µM"
  },
  {
    "COMPOUND": "Cc1c(C(N=[N+]=[N-])c2ccccc2)nc(SC(C)C)[nH]c1=O (centres undefined)",
    "CC50": "> 396 µM"
  },
  {
    "COMPOUND": "CCc1c(C(N=[N+]=[N-])c2ccc(C)cc2)nc(SC(C)C)[nH]c1=O (centres undefined)",
    "CC50": "> 364 µM"
  },
  {
    "COMPOUND": "CC(C)Sc1nc(C(N=[N+]=[N-])c2ccc(Br)cc2)c(C(C)C)c(=O)[nH]1 (centres undefined)",
    "CC50": "32.8 µM"
  },
  {
    "COMPOUND": "Cc1ccnc2c1NC(=O)c1cccnc1N2C1CC1",
    "CC50": "> 15 µM"
  },
  {
    "COMPOUND": "CCc1c(C(N=[N+]=[N-])c2ccc(Cl)cc2)nc(SC(C)C)[nH]c1=O (centres undefined)",
    "CC50": "> 344 µM"
  }
]

---

System: Human immunodeficiency virus 1
ASSAY_SUMMARY: Anti-HIV activity against wild type HIV-1 IIIB infected in human MT4 cells assessed as inhibition of virus-induced cytopathic effect by MTT assay
Assay type: functional, organism-based
CONDITION_DETAILS: Human immunodeficiency virus 1, IIIB
// classify: if (EC50 < 900 nM) 1 else 0

[
  {
    "MOLECULE": "Cc1cc(C)cc(C(N=[N+]=[N-])c2nc(SC(C)C)[nH]c(=O)c2C(C)C)c1 (stereo not given)",
    "CLASS_ASSIGNMENT": 1
  },
  {
    "MOLECULE": "Cc1c(C(N=[N+]=[N-])c2cccc3ccccc23)nc(SC(C)C)[nH]c1=O (stereo not given)",
    "CLASS_ASSIGNMENT": 1
  },
  {
    "MOLECULE": "CC(C)Sc1nc(C(N=[N+]=[N-])c2ccc(F)cc2)c(C(C)C)c(=O)[nH]1 (stereo not given)",
    "CLASS_ASSIGNMENT": 0
  },
  {
    "MOLECULE": "Cc1c(C(N=[N+]=[N-])c2ccccc2)nc(SC(C)C)[nH]c1=O (stereo not given)",
    "CLASS_ASSIGNMENT": 1
  },
  {
    "MOLECULE": "Cc1c(C(N=[N+]=[N-])c2ccc(Cl)cc2)nc(SC(C)C)[nH]c1=O (stereo not given)",
    "CLASS_ASSIGNMENT": 1
  },
  {
    "MOLECULE": "CCc1c(C(N=[N+]=[N-])c2cc(C)cc(C)c2)nc(SC(C)C)[nH]c1=O (stereo not given)",
    "CLASS_ASSIGNMENT": 1
  },
  {
    "MOLECULE": "Cc1c(C(N=[N+]=[N-])c2ccc(F)cc2)nc(SC(C)C)[nH]c1=O (stereo not given)",
    "CLASS_ASSIGNMENT": 1
  },
  {
    "MOLECULE": "CCc1c(C(N=[N+]=[N-])c2ccc(OC(F)(F)F)cc2)nc(SC(C)C)[nH]c1=O (stereo not given)",
    "CLASS_ASSIGNMENT": 0
  },
  {
    "MOLECULE": "CCc1c(C(N=[N+]=[N-])c2ccccc2)nc(SC(C)C)[nH]c1=O (stereo not given)",
    "CLASS_ASSIGNMENT": 1
  },
  {
    "MOLECULE": "Cc1ccc(C(N=[N+]=[N-])c2nc(SC(C)C)[nH]c(=O)c2C(C)C)cc1 (stereo not given)",
    "CLASS_ASSIGNMENT": 1
  },
  {
    "MOLECULE": "CCc1c(C(N=[N+]=[N-])c2cccc3ccccc23)nc(SC(C)C)[nH]c1=O (stereo not given)",
    "CLASS_ASSIGNMENT": 0
  },
  {
    "MOLECULE": "Cc1c(C(N=[N+]=[N-])c2ccc(-c3ccccc3)cc2)nc(SC(C)C)[nH]c1=O (stereo not given)",
    "CLASS_ASSIGNMENT": 0
  },
  {
    "MOLECULE": "CCc1c(C(N=[N+]=[N-])c2ccc3ccccc3c2)nc(SC(C)C)[nH]c1=O (stereo not given)",
    "CLASS_ASSIGNMENT": 1
  },
  {
    "MOLECULE": "Cc1c(C(N=[N+]=[N-])c2ccc(OC(F)(F)F)cc2)nc(SC(C)C)[nH]c1=O (stereo not given)",
    "CLASS_ASSIGNMENT": 0
  },
  {
    "MOLECULE": "COc1cc(OC)cc(C(N=[N+]=[N-])c2nc(SC(C)C)[nH]c(=O)c2C(C)C)c1 (stereo not given)",
    "CLASS_ASSIGNMENT": 0
  },
  {
    "MOLECULE": "Cc1c(C(N=[N+]=[N-])c2ccc(Br)cc2)nc(SC(C)C)[nH]c1=O (stereo not given)",
    "CLASS_ASSIGNMENT": 1
  },
  {
    "MOLECULE": "Cc1c(C(C#N)c2ccccc2)nc(SC(C)C)[nH]c1=O (stereo not given)",
    "CLASS_ASSIGNMENT": 1
  },
  {
    "MOLECULE": "Cc1c(C(N=[N+]=[N-])c2ccc3ccccc3c2)nc(SC(C)C)[nH]c1=O (stereo not given)",
    "CLASS_ASSIGNMENT": 1
  }
]
